Listed here: items and their measured melting point.

Examples from the recorded data:
smiles record: Nc1ncnc2c1nc(Sc1cc3c(cc1Br)OCO3)n2CC(=O)NO
observed: 230 °C (dec.)

smiles record: CC(C)(C)c1cnc(CSc2cnc(NC(=O)C3CCN(CCCC(=O)NO)CC3)s2)o1
observed: 176 to 180 °C

smiles record: CC(C)(C)c1cnc(CSc2cnc(NC(=O)C3CCN(CCCCCC(=O)NO)CC3)s2)o1
observed: 127 to 130 °C

smiles record: C[C@@H](Nc1ncnc2[nH]c(-c3ccc(OCC(=O)NO)cc3)cc12)c1ccccc1
observed: 116.8 to 126.8 °C

Asked: Could you share which melting point value was measured for `Nc1ccc(C(=O)NCCNC(=O)CCCC(=O)NO)cc1` ?
Given back: 158.9 to 159.8 °C

Asked: Could you share which melting point value was measured for `Cc1nc(NCCCCCCC(=O)NO)cc(Nc2ncc(C(=O)Nc3c(C)cccc3Cl)s2)n1` ?
Given back: 150.7 °C (dec.)

Asked: Could you share which melting point value was measured for `Cc1[nH]c(/C=C2\C(=O)Nc3ccc(F)cc32)c(C)c1C(=O)NCCCCCC(=O)NO` ?
Given back: 209.7 °C (dec.)

Asked: Could you share which melting point value was measured for `CN(C)CC[C@H](CSc1ccccc1)Nc1ccc(S(=O)(=O)NC(=O)c2ccc(N3CCN(Cc4ccccc4-c4ccc(Cl)cc4)CC3)c(NC(=O)CCCCC(=O)NO)c2)cc1[N+](=O)[O-]` ?
Given back: 150 °C
